- Test system: SNB-19 CNS
- experimentalProtocol: NCI tumour cell line growth inhibition, 48 h
Exercise: for every item that follows, state its recorded TGI.

Solved cases below.
[
  {
    "molecule": "CSc1nc(NC2OCC(O)C(O)C2O)c(N)c(=O)n1C (configuration not stated)",
    "TGI": "> 100 µM"
  },
  {
    "molecule": "COc1ccc(C[C@H](N)C(=O)N2C[C@H](CO)C[C@H](n3ccc(=O)[nH]c3=O)C2)cc1",
    "TGI": "> 100 µM"
  },
  {
    "molecule": "NC(N)=N/N=C/c1c(-c2cccs2)nc2sccn12",
    "TGI": "28.6 µM"
  },
  {
    "molecule": "Nc1ccc(N=Nc2ccccc2)c(N)n1",
    "TGI": "> 100 µM"
  },
  {
    "molecule": "C[C@@H]1C[C@]2(C[C@@H](C)[C@H]3C(C[C@@]4(C)CCC[C@@H]5C6=C[C@H](CCC34C)OC6=CC(=O)OC5(C)C)O2)OC1=O (some centres not stated)",
    "TGI": "> 51.5 µM"
  }
]

Your task in this section: give TGI for each listed record.
1. C=CC(C)(C)N[C@@H](C(=O)N1CCC[C@H]1c1nc(-c2nc(C(=O)OCC=C(C)C)c(C)o2)c(C)o1)C(C)C
2. CC/C=C\C/C=C\C[C@H](O)C/C=C1/C(=O)C=C[C@H]1C/C=C\CCC(=O)OC
3. Nc1ccccc1NC(=O)CCCCCCC(=O)Nc1ccc2c(c1)/C(=C/c1ccc[nH]1)C(=O)N2
4. ON(CCc1ccncc1)Cc1ccccc1
5. O=C1O[C@H](C(Cl)(Cl)Cl)N2CCCC12 (some centres not stated)
6. CC(C)(C)n1c(=O)n(C(=O)C(Cl)(Cl)Cl)n(C(=O)C(Cl)(Cl)Cl)c1=O
7. CC(NC(=O)OCc1ccccc1)NC(=O)C(CC(=O)OC(C)(C)C)NC(=O)OC(C)(C)C (configuration not stated)

Result:
1: 55 µM; 2: > 8.25 µM; 3: > 100 µM; 4: > 100 µM; 5: > 100 µM; 6: > 100 µM; 7: > 100 µM

Okay, here is my list. What is TGI for each of these?
1. CCN(CC)c1ccc(N=C2C=C(C(=O)Nc3ccc(S(C)(=O)=O)cc3)C(=O)c3ccccc32)c(C)c1
2. CCOC(=O)C(NC(=O)CC(C)C)(Nc1ccc(C(F)(F)F)cc1)C(F)(F)F (configuration not stated)
3. CCN(CC)C(=S)N/N=C/c1ccccn1
4. CCOC(=O)C1=C(C)C(C(=O)OC)/C(=C/c2cccc3cccnc23)C1=O (configuration not stated)
5. C[C@@H]1COCCN1c1nc(-c2cnc(N)cc2C(F)F)nc(N2[C@H](C)COC[C@@H]2C)n1

Result:
1: > 100 µM; 2: > 100 µM; 3: > 100 µM; 4: > 10 µM; 5: 14.4 µM

Provide TGI for all items below, preserving their order.
1. O=c1[nH]c2ccccc2nc1/C=C(\O)C(F)F
2. O=c1[nH]c2cc3cccnc3c(Cl)c2nc1C(F)(F)F
3. Cn1c(=O)c(Oc2cccc(F)c2)cc2cnc(NC3CCOCC3)nc21
4. O=Nc1c(-c2cccc([N+](=O)[O-])c2)nc2cnccn12
5. CC(C)(C)OC(=O)NC(Cc1ccc(O)cn1)C(N)=O (configuration not stated)
6. OCCCCC#Cc1ccccc1C#Cc1ccccc1F

Result:
> 100 µM
> 100 µM
> 25 µM
> 100 µM
> 100 µM
36.8 µM

Count: 4. Required value per item: TGI.
1. N#Cc1cccc(C(=O)c2cnn(-c3ccc(F)cc3)c2N)c1
2. CCNC(=O)/C=C/CCC#Cc1ccc(-c2ccc(-c3cccs3)s2)s1
3. Cc1ccc(S(=O)(=O)NC(=O)NCCC(=O)O)cc1
4. COc1ccc(Nc2ccnc(NCCNc3ccnc4cc(Cl)ccc34)n2)cc1

Result:
> 25 µM
> 100 µM
> 100 µM
12 µM
